# Tested on: kainate
# Experiment description: Binding kainate (ag)
# Design: species or system rat
Each entry below lists one item and its recorded % Inhibition of Control Specific Binding @ 10 μM value.
Outcome measure: % Inhibition of Control Specific Binding @ 10 μM

{"Mol": "CC1(C)C(=O)N(c2ccc(C#N)c(C(F)(F)F)c2)C(=S)N1c1ccc(C(=O)O)c(F)c1", "Experimental result": "−4%"}
{"Mol": "CC1(C)C(=O)N(c2ccc(C#N)c(C(F)(F)F)c2)C(=S)N1c1ccc(C(N)=O)c(F)c1", "Experimental result": "−21%"}
{"Mol": "CC1(C)C(=O)N(c2ccc(C#N)c(C(F)(F)F)c2)C(=O)N1c1ccc(C(N)=O)c(F)c1", "Experimental result": "−10%"}
{"Mol": "CNC(=O)c1ccc(N2C(=O)N(c3ccc(C#N)c(C(F)(F)F)c3)C(=O)C2(C)C)cc1F", "Experimental result": "−8%"}

* * *

# System: 5-HT (ns)
# Experiment description: Binding 5-HT (ns) (ag)
# Parameters: species or system rat
Outcome measure: % Inhibition of Control Specific Binding @ 10 μM (%)

{"Compound": "CC1(C)C(=O)N(c2ccc(C#N)c(C(F)(F)F)c2)C(=S)N1c1ccc(C(=O)O)c(F)c1 [(MI)]", "Experimental result": 21}
{"Compound": "CC1(C)C(=O)N(c2ccc(C#N)c(C(F)(F)F)c2)C(=O)N1c1ccc(C(N)=O)c(F)c1 [(MIII)]", "Experimental result": "−12"}
{"Compound": "CNC(=O)c1ccc(N2C(=O)N(c3ccc(C#N)c(C(F)(F)F)c3)C(=O)C2(C)C)cc1F [(MIV)]", "Experimental result": 6}
{"Compound": "CC1(C)C(=O)N(c2ccc(C#N)c(C(F)(F)F)c2)C(=S)N1c1ccc(C(N)=O)c(F)c1 [(MII)]", "Experimental result": 14}

* * *

# Test system: PDE4D (h) (Homo sapiens)
# Construct: host or cells: Sf9 cells
# Sequence (Q08499 whole entry): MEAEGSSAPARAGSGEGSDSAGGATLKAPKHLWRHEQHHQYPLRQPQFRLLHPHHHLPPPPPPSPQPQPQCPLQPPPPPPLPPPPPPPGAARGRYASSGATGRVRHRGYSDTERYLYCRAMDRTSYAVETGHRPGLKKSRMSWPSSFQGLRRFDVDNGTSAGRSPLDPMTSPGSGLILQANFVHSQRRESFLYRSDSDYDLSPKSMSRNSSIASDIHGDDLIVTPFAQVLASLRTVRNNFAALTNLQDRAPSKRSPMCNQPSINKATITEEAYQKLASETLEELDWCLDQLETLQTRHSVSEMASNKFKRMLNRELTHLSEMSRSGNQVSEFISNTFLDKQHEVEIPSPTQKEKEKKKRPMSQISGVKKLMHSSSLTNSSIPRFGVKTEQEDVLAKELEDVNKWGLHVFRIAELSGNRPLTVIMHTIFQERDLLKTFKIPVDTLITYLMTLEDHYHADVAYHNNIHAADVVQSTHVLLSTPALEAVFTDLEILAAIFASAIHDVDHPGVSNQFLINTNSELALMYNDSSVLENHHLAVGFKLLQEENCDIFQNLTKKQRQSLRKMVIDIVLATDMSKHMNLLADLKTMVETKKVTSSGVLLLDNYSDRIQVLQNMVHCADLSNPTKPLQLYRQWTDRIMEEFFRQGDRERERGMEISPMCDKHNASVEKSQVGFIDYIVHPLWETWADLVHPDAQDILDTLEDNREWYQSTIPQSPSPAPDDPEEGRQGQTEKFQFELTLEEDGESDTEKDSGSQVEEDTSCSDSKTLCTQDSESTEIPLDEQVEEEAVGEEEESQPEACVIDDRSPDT
# Experiment description: Enzyme assay PDE4D (h)
# Type: biochemical
# Test conditions: read-out: % Inhibition of Control Values @ 10 μM
# Text: The enzyme assays provided below will be familiar to those skilled in the art. Analysis and Expression of Results: The results are expressed as a percent of control specific activity ((measured specific activity/control specific activity)×100) obtained in the presence of the test compounds.

{"Mol": "CC1(C)C(=O)N(c2ccc(C#N)c(C(F)(F)F)c2)C(=O)N1c1ccc(C(N)=O)c(F)c1", "Test system": "PDE4D (h) (Homo sapiens)", "Units text": "%", "inhibition at 10 µM": -11}
{"Mol": "CNC(=O)c1ccc(N2C(=O)N(c3ccc(C#N)c(C(F)(F)F)c3)C(=O)C2(C)C)cc1F", "Test system": "PDE4D (h) (Homo sapiens)", "Units text": "%", "inhibition at 10 µM": -41}
{"Mol": "CC1(C)C(=O)N(c2ccc(C#N)c(C(F)(F)F)c2)C(=S)N1c1ccc(C(N)=O)c(F)c1", "Test system": "PDE4D (h) (Homo sapiens)", "Units text": "%", "inhibition at 10 µM": -9}
{"Mol": "CC1(C)C(=O)N(c2ccc(C#N)c(C(F)(F)F)c2)C(=S)N1c1ccc(C(=O)O)c(F)c1", "Test system": "PDE4D (h) (Homo sapiens)", "Units text": "%", "inhibition at 10 µM": 1}

* * *

# Tested on: I2
# Experiment description: Binding I2 (aa)
# Parameters: species or system rat
Outcome measure: % Inhibition of Control Specific Binding @ 10 μM (%)

{"Mol": "CNC(=O)c1ccc(N2C(=O)N(c3ccc(C#N)c(C(F)(F)F)c3)C(=O)C2(C)C)cc1F", "Experimental result": 8}
{"Mol": "CC1(C)C(=O)N(c2ccc(C#N)c(C(F)(F)F)c2)C(=S)N1c1ccc(C(N)=O)c(F)c1", "Experimental result": 22}
{"Mol": "CC1(C)C(=O)N(c2ccc(C#N)c(C(F)(F)F)c2)C(=O)N1c1ccc(C(N)=O)c(F)c1", "Experimental result": 20}
{"Mol": "CC1(C)C(=O)N(c2ccc(C#N)c(C(F)(F)F)c2)C(=S)N1c1ccc(C(=O)O)c(F)c1", "Experimental result": 28}

* * *

The compounds listed here are annotated with their % Inhibition of Control Values @ 10 μM.
# System: COMT
# Experiment description: Enzyme assay COMT
# Type: biochemical, porcine
Outcome measure: % Inhibition of Control Values @ 10 μM (%)

{"Mol": "CC1(C)C(=O)N(c2ccc(C#N)c(C(F)(F)F)c2)C(=S)N1c1ccc(C(=O)O)c(F)c1", "Experimental result": 1}
{"Mol": "CC1(C)C(=O)N(c2ccc(C#N)c(C(F)(F)F)c2)C(=S)N1c1ccc(C(N)=O)c(F)c1", "Experimental result": "−1"}
{"Mol": "CNC(=O)c1ccc(N2C(=O)N(c3ccc(C#N)c(C(F)(F)F)c3)C(=O)C2(C)C)cc1F", "Experimental result": 0}
{"Mol": "CC1(C)C(=O)N(c2ccc(C#N)c(C(F)(F)F)c2)C(=O)N1c1ccc(C(N)=O)c(F)c1", "Experimental result": "−1"}

* * *

# Test system: human GABAA α1β3 receptor (Homo sapiens, UniProt P14867+P28472)
# Construct: expressed in transfected cells; host or cells: Xenopus laevis oocytes, cDNA injection
# Sequence (P14867 28-456): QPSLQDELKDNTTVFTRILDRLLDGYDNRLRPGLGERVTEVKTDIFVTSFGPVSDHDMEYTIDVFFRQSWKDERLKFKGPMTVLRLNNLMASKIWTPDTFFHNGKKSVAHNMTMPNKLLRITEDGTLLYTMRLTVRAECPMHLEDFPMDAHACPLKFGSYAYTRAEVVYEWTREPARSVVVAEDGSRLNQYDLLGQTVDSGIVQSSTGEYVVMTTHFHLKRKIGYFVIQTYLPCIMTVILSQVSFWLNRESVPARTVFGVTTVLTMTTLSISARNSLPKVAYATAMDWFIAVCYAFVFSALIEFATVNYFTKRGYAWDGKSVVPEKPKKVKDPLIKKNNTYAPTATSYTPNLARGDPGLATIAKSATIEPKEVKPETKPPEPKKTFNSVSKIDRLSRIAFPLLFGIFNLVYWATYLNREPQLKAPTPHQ
# Sequence (P28472 26-473): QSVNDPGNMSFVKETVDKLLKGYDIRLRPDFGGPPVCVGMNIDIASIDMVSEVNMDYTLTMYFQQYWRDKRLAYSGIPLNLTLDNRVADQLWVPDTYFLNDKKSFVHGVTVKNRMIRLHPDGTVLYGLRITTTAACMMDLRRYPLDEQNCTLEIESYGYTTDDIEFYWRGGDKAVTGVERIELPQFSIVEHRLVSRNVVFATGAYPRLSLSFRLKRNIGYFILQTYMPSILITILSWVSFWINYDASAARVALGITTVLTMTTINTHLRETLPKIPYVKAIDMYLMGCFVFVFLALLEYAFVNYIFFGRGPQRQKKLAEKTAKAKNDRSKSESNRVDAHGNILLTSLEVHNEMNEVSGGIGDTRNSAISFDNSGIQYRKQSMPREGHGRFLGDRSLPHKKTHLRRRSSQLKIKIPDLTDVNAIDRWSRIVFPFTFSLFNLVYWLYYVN
# Experiment description: cell-based
# Test conditions: α1β3 GABAA IC50 (μM)
Outcome measure: IC50 (µM)

{"Molecule": "CC1(C)C(=O)N(c2ccc(C#N)c(C(F)(F)F)c2)C(=O)N1c1ccc(C(N)=O)c(F)c1 [(MIII)]", "Units text": "µM", "Experimental result": 4}
{"Molecule": "CC1(C)C(=O)N(c2ccc(C#N)c(C(F)(F)F)c2)C(=S)N1c1ccc(C(=O)O)c(F)c1 [(MI)]", "Units text": "µM", "Experimental result": 20.7}

* * *

This section presents molecules with their documented % Inhibition of Control Specific Binding @ 10 μM values.
# Test system: NMDA
# Experiment description: Binding NMDA (aa)
# Parameters: species or system rat
Outcome measure: % Inhibition of Control Specific Binding @ 10 μM

{"Mol": "CNC(=O)c1ccc(N2C(=O)N(c3ccc(C#N)c(C(F)(F)F)c3)C(=O)C2(C)C)cc1F", "Experimental result": "−41%"}
{"Mol": "CC1(C)C(=O)N(c2ccc(C#N)c(C(F)(F)F)c2)C(=S)N1c1ccc(C(=O)O)c(F)c1", "Experimental result": "2%"}
{"Mol": "CC1(C)C(=O)N(c2ccc(C#N)c(C(F)(F)F)c2)C(=S)N1c1ccc(C(N)=O)c(F)c1", "Experimental result": "5%"}
{"Mol": "CC1(C)C(=O)N(c2ccc(C#N)c(C(F)(F)F)c2)C(=O)N1c1ccc(C(N)=O)c(F)c1", "Experimental result": "0%"}

* * *

# Test system: human androgen receptor (Homo sapiens, UniProt P10275, T878A)
# Construct: The human androgen receptor was expressed in LNCAP cells; endogenous in cells; host or cells: LNCaP cells (supernatant of homogenate)
# Sequence (P10275 whole entry T878A): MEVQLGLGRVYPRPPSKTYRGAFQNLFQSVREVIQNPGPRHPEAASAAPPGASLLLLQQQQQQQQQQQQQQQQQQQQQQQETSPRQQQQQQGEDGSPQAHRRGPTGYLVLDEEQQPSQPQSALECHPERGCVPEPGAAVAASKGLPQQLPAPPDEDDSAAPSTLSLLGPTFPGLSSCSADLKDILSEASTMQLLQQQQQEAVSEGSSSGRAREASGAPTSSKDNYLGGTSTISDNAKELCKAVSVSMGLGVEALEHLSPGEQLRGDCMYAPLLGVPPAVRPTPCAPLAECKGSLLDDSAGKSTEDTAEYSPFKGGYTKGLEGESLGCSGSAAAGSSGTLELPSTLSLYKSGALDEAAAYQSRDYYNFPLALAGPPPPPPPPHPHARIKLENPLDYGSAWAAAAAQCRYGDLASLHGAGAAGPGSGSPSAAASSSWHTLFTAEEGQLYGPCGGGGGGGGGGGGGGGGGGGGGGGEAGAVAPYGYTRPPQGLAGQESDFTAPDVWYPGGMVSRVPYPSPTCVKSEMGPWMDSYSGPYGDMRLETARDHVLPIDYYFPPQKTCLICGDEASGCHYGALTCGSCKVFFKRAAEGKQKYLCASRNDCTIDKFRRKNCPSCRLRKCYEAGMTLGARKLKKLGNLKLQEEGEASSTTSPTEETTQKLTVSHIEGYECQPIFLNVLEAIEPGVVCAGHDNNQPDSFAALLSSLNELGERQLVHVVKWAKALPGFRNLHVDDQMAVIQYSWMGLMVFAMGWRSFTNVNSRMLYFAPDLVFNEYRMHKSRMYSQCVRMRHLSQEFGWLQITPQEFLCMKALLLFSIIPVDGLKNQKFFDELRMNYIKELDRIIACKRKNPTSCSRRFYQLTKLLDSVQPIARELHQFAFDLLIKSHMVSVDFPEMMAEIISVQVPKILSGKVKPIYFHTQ
# Experiment description: Human Androgen Receptor (AR) Binding
# Test conditions: AR Binding Activity Ki (μM); Reference Compound Methyltrienolone
Outcome measure: Ki (µM)

{"Compound": "CC1(C)C(=O)N(c2ccc(C#N)c(C(F)(F)F)c2)C(=O)N1c1ccc(C(N)=O)c(F)c1 [(MIII)]", "Outcome measure": "Ki", "Value modifier": "=", "Experimental result": 0.314}
{"Compound": "CNC(=O)c1ccc(N2C(=O)N(c3ccc(C#N)c(C(F)(F)F)c3)C(=O)C2(C)C)cc1F [(MIV)]", "Outcome measure": "Ki", "Value modifier": "=", "Experimental result": 0.361}
{"Compound": "CC1(C)C(=O)N(c2ccc(C#N)c(C(F)(F)F)c2)C(=S)N1c1ccc(C(=O)O)c(F)c1 [(MI)]", "Outcome measure": "Ki", "Value modifier": ">", "Experimental result": 10}
{"Compound": "CC1(C)C(=O)N(c2ccc(C#N)c(C(F)(F)F)c2)C(=S)N1c1ccc(C(N)=O)c(F)c1 [(MII)]", "Outcome measure": "Ki", "Value modifier": "=", "Experimental result": 0.059}

* * *

# Test system: Androgen Receptor (Homo sapiens)
# Sequence (P10275 whole entry): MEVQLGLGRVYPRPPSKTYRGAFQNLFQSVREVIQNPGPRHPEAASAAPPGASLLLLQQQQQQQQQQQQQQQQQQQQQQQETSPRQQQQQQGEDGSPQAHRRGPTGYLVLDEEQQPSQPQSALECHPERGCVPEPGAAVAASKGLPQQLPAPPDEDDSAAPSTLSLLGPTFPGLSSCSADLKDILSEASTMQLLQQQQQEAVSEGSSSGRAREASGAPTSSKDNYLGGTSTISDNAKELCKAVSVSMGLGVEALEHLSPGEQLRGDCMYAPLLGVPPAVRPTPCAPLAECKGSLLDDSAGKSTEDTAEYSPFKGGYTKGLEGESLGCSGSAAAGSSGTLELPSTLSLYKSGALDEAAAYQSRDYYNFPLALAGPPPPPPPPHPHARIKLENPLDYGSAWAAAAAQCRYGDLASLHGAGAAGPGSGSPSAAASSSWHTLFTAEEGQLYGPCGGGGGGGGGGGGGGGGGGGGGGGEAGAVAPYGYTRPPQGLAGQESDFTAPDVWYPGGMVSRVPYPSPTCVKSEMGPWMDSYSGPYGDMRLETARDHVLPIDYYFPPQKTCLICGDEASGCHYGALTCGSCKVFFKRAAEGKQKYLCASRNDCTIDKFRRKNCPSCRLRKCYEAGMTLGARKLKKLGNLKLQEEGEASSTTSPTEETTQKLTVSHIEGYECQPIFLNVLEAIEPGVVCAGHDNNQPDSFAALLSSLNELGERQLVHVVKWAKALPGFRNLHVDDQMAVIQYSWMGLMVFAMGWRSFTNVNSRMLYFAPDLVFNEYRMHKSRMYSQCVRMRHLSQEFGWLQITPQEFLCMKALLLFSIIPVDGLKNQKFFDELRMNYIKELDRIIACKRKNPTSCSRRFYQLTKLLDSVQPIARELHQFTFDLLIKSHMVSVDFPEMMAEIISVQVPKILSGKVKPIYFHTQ
# Experiment description: Androgen Receptor Nuclear Translocation Assay
# Test conditions: antagonist mode; agonist challenge at EC80; read-out: AR Nuclear Translocation Assay Antagonist Mode IC50
# Procedure: Once it was established that the cells were healthy and growing normally, cells were transferred from flasks using trypsin-free cell dissociation buffer and seeded into white walled clear bottom 384-well microplates for compound profiling. […] Antagonist Format: Agonist dose curves were performed to determine the EC80 value for the following antagonist testing with compounds. […] EC80 agonist concentration was determined directly from agonist dose curve. […]
pIC50: −log10 of the molar value.
Quick reference for pIC50 among some molecules

{"Molecule": "CC1(C)C(=O)N(c2ccc(C#N)c(C(F)(F)F)c2)C(=S)N1c1ccc(C(N)=O)c(F)c1 [(MII)]", "Value modifier": "=", "pIC50": 5.49}
{"Molecule": "CC1(C)C(=O)N(c2ccc(C#N)c(C(F)(F)F)c2)C(=S)N1c1ccc(C(=O)O)c(F)c1 [(MI)]", "Value modifier": "<", "pIC50": 4.22}
{"Molecule": "CC1(C)C(=O)N(c2ccc(C#N)c(C(F)(F)F)c2)C(=O)N1c1ccc(C(N)=O)c(F)c1 [(MIII)]", "Value modifier": "=", "pIC50": 4.79}
{"Molecule": "CNC(=O)c1ccc(N2C(=O)N(c3ccc(C#N)c(C(F)(F)F)c3)C(=O)C2(C)C)cc1F [(MIV)]", "Value modifier": "=", "pIC50": 4.94}
